B1: PDZK1 (parent)
chain: RETASLKLLPHQPRIVEMKKGSNG

variants of: B1; assay: protein stability index of a GFP-peptide fusion (GPS, HEK-293T) (PSI 1-6); higher = more stable; details: c terminus: a fixed tail appended;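 note: lentivirally expressed fusions sorted by FACS into six bins by GFP to DsRed ratio, PSI derived from sequencing read proportions per bin multiplied by bin number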
Listed here are variants together with their documented protein stability index.
measurement.name: protein stability index

macromolecule_sequence="RETASMKLLPHQPRIVEMKKGSNG [L6M]" measurement_name="protein stability index" assay_result=3.55
macromolecule_sequence="REAASLKLLPHQPRIVEMKKGSNG [T3A]" measurement_name="protein stability index" assay_result=3.26
macromolecule_sequence="RETASLKHLPHQPRIVEMKKGSNG [L8H]" measurement_name="protein stability index" assay_result=2.81
macromolecule_sequence="RETASAKLLPHQPRIVEMKKGSNG [L6A]" measurement_name="protein stability index" assay_result=3.66
macromolecule_sequence="YETASLKLLPHQPRIVEMKKGSNG [R1Y]" measurement_name="protein stability index" assay_result=3.14
macromolecule_sequence="RETASLKLLPHQPRIDEMKKGSNG [V16D]" measurement_name="protein stability index" assay_result=4.18
macromolecule_sequence="RETASLKLLKHQPRIVEMKKGSNG [P10K]" measurement_name="protein stability index" assay_result=3.62
macromolecule_sequence="RETASLKLLPHQPRIVEFKKGSNG [M18F]" measurement_name="protein stability index" assay_result=4
macromolecule_sequence="REFASLKLLPHQPRIVEMKKGSNG [T3F]" measurement_name="protein stability index" assay_result=3.08
macromolecule_sequence="RETARLKLLPHQPRIVEMKKGSNG [S5R]" measurement_name="protein stability index" assay_result=3.38
macromolecule_sequence="REYASLKLLPHQPRIVEMKKGSNG [T3Y]" measurement_name="protein stability index" assay_result=3.02
macromolecule_sequence="RETGSLKLLPHQPRIVEMKKGSNG [A4G]" measurement_name="protein stability index" assay_result=3.17
macromolecule_sequence="RETASLKLLPHQPRIVEMGKGSNG [K19G]" measurement_name="protein stability index" assay_result=4.83
macromolecule_sequence="REEASLKLLPHQPRIVEMKKGSNG [T3E]" measurement_name="protein stability index" assay_result=3.65
macromolecule_sequence="RETASLKLLPHQPRIVEMKKGSGG [N23G]" measurement_name="protein stability index" assay_result=3.62
macromolecule_sequence="RETASLKNLPHQPRIVEMKKGSNG [L8N]" measurement_name="protein stability index" assay_result=2.96
macromolecule_sequence="RETKSLKLLPHQPRIVEMKKGSNG [A4K]" measurement_name="protein stability index" assay_result=3.79
macromolecule_sequence="RETPSLKLLPHQPRIVEMKKGSNG [A4P]" measurement_name="protein stability index" assay_result=3.8
macromolecule_sequence="RETASLKLLPHQPRIVEMKKGSND [G24D]" measurement_name="protein stability index" assay_result=5
macromolecule_sequence="RETASLKLLPHQPRIVEMKQGSNG [K20Q]" measurement_name="protein stability index" assay_result=4.06
macromolecule_sequence="RETASLKLLPHQPRIVEMKKGSAG [N23A]" measurement_name="protein stability index" assay_result=3.62
macromolecule_sequence="RETASLKLLPHQPRIVEMKKGSNF [G24F]" measurement_name="protein stability index" assay_result=3.05
